This listing pairs variants with measured abundance fitness.
B1: Ankyrin-2, residues 3571 to 3650; numbered along this chain, Q01484 (parent)
chain: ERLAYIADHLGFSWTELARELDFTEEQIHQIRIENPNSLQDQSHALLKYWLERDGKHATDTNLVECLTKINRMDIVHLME

variants of: B1; assay: abundance fitness (aPCA) (normalised: wild type 0, dead -1); higher = more abundant; growth selection in yeast, the domain comes from the species named; conditions: Homo sapiens
metric: abundance fitness

[[record]]
sequencedata = "ERLAYIADHLGFSWTEPARELDFTEEQIHQIRIENPNSLQDQSHALLKYWLERDGKHATDTNLVECLTKINRMDIVHLME"
metric = "abundance fitness"
measurement = -1.17

[[record]]
sequencedata = "ERLAYIADHLGFSWTELARELDFTEEQIHQIRIENPNSLQDQSLALLKYWLERDGKHATDTNLVECLTKINRMDIVHLME"
metric = "abundance fitness"
measurement = -0.008

[[record]]
sequencedata = "ERLAYIADHLGFCWTELARELDFTEEQIHQIRIENPNSLQDQSHALLKYWLERDGKHATDTNLVECLTKINRMDIVHLME"
metric = "abundance fitness"
measurement = -0.25

[[record]]
sequencedata = "ERLAYIADHLGFSWTELARELDFTEEQIHQIRIENPNSLQDQSHALLKYWLEADGKHATDTNLVECLTKINRMDIVHLME"
metric = "abundance fitness"
measurement = -0.052

[[record]]
sequencedata = "ERLAYIADHLGFSWTELARELDFTEEQIHQIRIELPNSLQDQSHALLKYWLERDGKHATDTNLVECLTKINRMDIVHLME"
metric = "abundance fitness"
measurement = -0.128

[[record]]
sequencedata = "ERLAYIADHLGFSWTELARELDFTEEQIHQIRIENPNSLQDQSHALCKYWLERDGKHATDTNLVECLTKINRMDIVHLME"
metric = "abundance fitness"
measurement = -0.163

[[record]]
sequencedata = "ERLAYIADHLGFSWTELARELDFTEEQIHQIRIENPNSLQDSSHALLKYWLERDGKHATDTNLVECLTKINRMDIVHLME"
metric = "abundance fitness"
measurement = 0.073

[[record]]
sequencedata = "ERLAYIADHLGFSWTELARELDFTEEQIHQIRIENPNSLQDQSHALLKPWLERDGKHATDTNLVECLTKINRMDIVHLME"
metric = "abundance fitness"
measurement = -0.513

[[record]]
sequencedata = "EDLAYIADHLGFSWTELARELDFTEEQIHQIRIENPNSLQDQSHALLKYWLERDGKHATDTNLVECLTKINRMDIVHLME"
metric = "abundance fitness"
measurement = 0.107

[[record]]
sequencedata = "ERLAYIADHLGFSWTELARELDFTEEQIHQIRIENPNSLQDQSHALPKYWLERDGKHATDTNLVECLTKINRMDIVHLME"
metric = "abundance fitness"
measurement = -1.28

[[record]]
sequencedata = "ERLAYIADHLGFSWTELARELDFTEEQIHQIRIENPNSLQDQSHALQKYWLERDGKHATDTNLVECLTKINRMDIVHLME"
metric = "abundance fitness"
measurement = -0.626

[[record]]
sequencedata = "ERLAYIADHLGFSWTELARELDFTEEQIHNIRIENPNSLQDQSHALLKYWLERDGKHATDTNLVECLTKINRMDIVHLME"
metric = "abundance fitness"
measurement = -0.128

[[record]]
sequencedata = "ERLAYIADHLGFSWTELARELDFTEEQIHQIRIENPNSLQDQSHALLKYWLERDPKHATDTNLVECLTKINRMDIVHLME"
metric = "abundance fitness"
measurement = -0.035

[[record]]
sequencedata = "ERLAYIADYLGFSWTELARELDFTEEQIHQIRIENPNSLQDQSHALLKYWLERDGKHATDTNLVECLTKINRMDIVHLME"
metric = "abundance fitness"
measurement = -0.409

[[record]]
sequencedata = "ERLAYIADHLGFSWTELPRELDFTEEQIHQIRIENPNSLQDQSHALLKYWLERDGKHATDTNLVECLTKINRMDIVHLME"
metric = "abundance fitness"
measurement = -1.17

[[record]]
sequencedata = "ERLAYIADHLGFSWTELARELDFTEEQIHQIRIENPNSLQDQSHALLKYWLERHGKHATDTNLVECLTKINRMDIVHLME"
metric = "abundance fitness"
measurement = 0.025

[[record]]
sequencedata = "ERLAYIADHLGFSWTELARELDFLEEQIHQIRIENPNSLQDQSHALLKYWLERDGKHATDTNLVECLTKINRMDIVHLME"
metric = "abundance fitness"
measurement = -0.144

[[record]]
sequencedata = "ERLAYIALHLGFSWTELARELDFTEEQIHQIRIENPNSLQDQSHALLKYWLERDGKHATDTNLVECLTKINRMDIVHLME"
metric = "abundance fitness"
measurement = 0.052

[[record]]
sequencedata = "ERLAYIADHLGFSWTELARWLDFTEEQIHQIRIENPNSLQDQSHALLKYWLERDGKHATDTNLVECLTKINRMDIVHLME"
metric = "abundance fitness"
measurement = -0.156

